B1: DLC1 (parent)
chain: KRSWEEHVTHWMGQPFNSDDRNTA

Variants of: B1
Test: protein stability index of a GFP-peptide fusion (GPS, HEK-293T) (PSI 1-6); higher = more stable;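 also: lentivirally expressed fusions sorted by FACS into six bins by GFP to DsRed ratio, PSI derived from sequencing read proportions per bin multiplied by bin number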
Conditions: c terminus: a fixed tail appended
Quantity: protein stability index

Chain Sequence	Reading
KRSKEEHVTHWMGQPFNSDDRNTA [W4K]	4.48
KRSWEEHVTEWMGQPFNSDDRNTA [H10E]	3.1
KRSWEEHQTHWMGQPFNSDDRNTA [V8Q]	3.86
KHSWEEHVTHWMGQPFNSDDRNTA [R2H]	3.08
KRSWEEHVTHWMGQPFNSDDGNTA [R21G]	3.17
ERSWEEHVTHWMGQPFNSDDRNTA [K1E]	4.15
KRSWEEHVTHWMGQPFNSDTRNTA [D20T]	2.75
KRSVEEHVTHWMGQPFNSDDRNTA [W4V]	4.36
KTSWEEHVTHWMGQPFNSDDRNTA [R2T]	3.7
KRSWEEHVTHWMGQNFNSDDRNTA [P15N]	2.48
KRSWEEHVTHWMGQPFNSDDRNIA [T23I]	2.35
KRSWEEHVTHHMGQPFNSDDRNTA [W11H]	2.95
KVSWEEHVTHWMGQPFNSDDRNTA [R2V]	3.26
KRSWEEHVTHWMGQPFNSDDRNTM [A24M]	2.09
KRSWEEHVTHWMEQPFNSDDRNTA [G13E]	2.61
KRSWEELVTHWMGQPFNSDDRNTA [H7L]	2.64
KRSWEEHVTHWMGQPFNSDDRNTF [A24F]	2.37
KRSWEEHVTHWMGQPYNSDDRNTA [F16Y]	2.69
KRSWEEHVTHWMGQPFNSDDRHTA [N22H]	2.04
KWSWEEHVTHWMGQPFNSDDRNTA [R2W]	2.98
KRSWEEHVTHWMGQPFNSDDRKTA [N22K]	3.02
KRSWEEHVTHWMGQPFGSDDRNTA [N17G]	2.44
KRSWEEHVTHWMGQPFNSSDRNTA [D19S]	2.6
KRSWEEHVFHWMGQPFNSDDRNTA [T9F]	2.11
KRSWEEHVTHLMGQPFNSDDRNTA [W11L]	2.85
KRSWEEHVTHWMGQPFNSDDRNTC [A24C]	2.32
KRSWEEHVTSWMGQPFNSDDRNTA [H10S]	2.73
KRSWFEHVTHWMGQPFNSDDRNTA [E5F]	3.16
KRSWEEHYTHWMGQPFNSDDRNTA [V8Y]	3.99
KRSWEEHVTHWMNQPFNSDDRNTA [G13N]	2.14
KRNWEEHVTHWMGQPFNSDDRNTA [S3N]	3.81
KRSWEEHVTHWMGQPANSDDRNTA [F16A]	2.54
KRSWEEHVTHWQGQPFNSDDRNTA [M12Q]	2.78
KRSWEEHVTHWEGQPFNSDDRNTA [M12E]	2.32
KRSWEEHVMHWMGQPFNSDDRNTA [T9M]	3.48
KRSWEHHVTHWMGQPFNSDDRNTA [E6H]	3.36
KRSWEEHVTHWMGQPFNSNDRNTA [D19N]	2.69
KRSWEEHVTHWMVQPFNSDDRNTA [G13V]	3.04
KRSWEEHVTHKMGQPFNSDDRNTA [W11K]	3.61
PRSWEEHVTHWMGQPFNSDDRNTA [K1P]	3.6
KRSWEEHVTHWMGRPFNSDDRNTA [Q14R]	3.47
KRSWEEHVTHWMGQPFNSDDRNNA [T23N]	2.74
KRSWEEHVTHWMGQPMNSDDRNTA [F16M]	2.94
KRSWEEHVVHWMGQPFNSDDRNTA [T9V]	2.75
KRSWENHVTHWMGQPFNSDDRNTA [E6N]	3.98
FRSWEEHVTHWMGQPFNSDDRNTA [K1F]	3.16
